Measured Percent Effect of individual entries
tested on: Trypanosoma cruzi; experiment: Trypanosoma cruzi phosphomannomutase and mannose-1-phosphate guanylyltransferase assay; assay type: functional; parameters: scale not given: direction of the effect not stated beside the values; conditions: 10 µM
Please append the unit to your numeric answer.

# annotated cases, reported Percent Effect shown
CCN1CCC2(COCc3cnc(NCC4CC4)nc32)C1 (stereo unspecified): 5.95%
C[C@@H]1CN(Cc2ccsc2)C[C@]12CCN(Cc1cccnc1)C2=O: -1.69%
CCNC(=O)NC(=O)CNC1(c2noc(C)n2)CCCCC1: 6.91%
O=C1CSC(c2ccsc2)c2sccc2N1 (stereo unspecified): -3.34%

Problem: Value lookup for Percent Effect; key = `CO[C@@H]1CN(Cc2scnc2C)[C@@H]2CCCO[C@@H]21`
Solution: 2.25%

Problem: Percent Effect for `CCc1cnc(N2CC3(CCN(Cc4ccsc4)C3)C2)nc1` ?
Solution: -7.3%

Problem: What does the record list as Percent Effect for `NC(=O)CN1CCCN(C(=O)Cc2ccc3ccccc3c2)CC1` ?
Solution: -13.2%

Problem: Reported Percent Effect, compound O=C1N(Cc2cccnc2)CCC12CCCNC2 (stereo unspecified) : ____
Solution: -3.19%

Problem: Item `O=C(c1ccnnc1)N1C[C@@H]2OCCN(CCN3CCCC3)[C@@H]2C1` has what recorded Percent Effect?
Solution: -2.64%

Problem: # query: Percent Effect of entry `NC[C@H]1[C@H]2CN(Cc3ccccc3)C[C@@H]12`
Solution: -0.938%

Problem: Which measured Percent Effect value corresponds to `CNCCc1nc2cc(F)ccc2[nH]1` ?
Solution: -6.13%

###

Measured Percent Effect values are reported for all entries that follow.
molecular target: Aspartate--tRNA(Asp/Asn) ligase (Mycobacterium tuberculosis (strain ATCC 25618 / H37Rv)); test: Assay for Asp RNA synthetase-1 from Mycobacterium tuberculosis; type: functional; parameters: scale not given: direction of the effect not stated beside the values; conditions: 30 µM; further: in the data most compounds retested in dose-response had high values

COCCC(=O)N1CC2(CCN(Cc3ccoc3)C2)C1: 5.6%

Problem: Requested field: Percent Effect. Item: `Cc1ccc2c(ccn2CCC(=O)N2CCC(C(N)=O)CC2)c1`
Solution: 0.842%

Problem: # Percent Effect lookup, item Cc1nn(C)c(N2CCOCC2)c1CNC1CCc2cc(F)ccc21 (stereo not given)
Solution: -1.16%

Problem: Fill in: Percent Effect of `O=C(CN1C=Nc2ccccc2S1(=O)=O)NCCc1cccs1` is ___
Solution: 0.225%

###

molecular target: Shiga toxin 2 (Escherichia coli O157:H7) (UniProt P09385+P09386); test: E. coli 0.157:H7 Shiga Toxin SOP - stx2 screening assay; type: functional; set-up: scale not given: direction of the effect not stated beside the values; details: 30 µM
Recorded metric: Percent Effect (%)
Number only, in %; omit the unit.

CCc1cnc(N2CC3(CCN(Cc4ccsc4)C3)C2)nc1: -11

Problem: Can you look up the measured Percent Effect of `O=C(Cn1ccnc1)N1C[C@@H]2CC[C@H](Oc3ccccc3)[C@@H]2C1` for me?
Solution: 2.5

Problem: Recorded Percent Effect for Cc1cc(CN2CCN(C(=O)NC(C)c3cccnc3)CC2)on1 (stereo unspecified) , please?
Solution: 24.6

Problem: Given the entry `CCn1ccnc1CN1CCCN(C(=O)c2sccc2C#N)CC1` , report its measured Percent Effect.
Solution: 2.81

Problem: Entry under review: `COc1cccc(CNCc2c(C(C)C)nn(C)c2N(C)C)c1OC` . Reported Percent Effect?
Solution: 31.1

Problem: Which measured Percent Effect value corresponds to CCN(CC)C(CNC(=O)c1ccc(S(C)(=O)=O)cc1)c1ccco1 (stereo unspecified) ?
Solution: -4.44

Problem: // lookup Percent Effect for `CCCc1nc(CN2CCN(Cc3noc(CCC)n3)CC2)no1`
Solution: -39.2

Problem: I would be grateful if you could share the reported Percent Effect for CC(C)c1nccn1C1CCCN(C(=O)c2ccc3[nH]nnc3c2)C1 (stereo unspecified) .
Solution: -22.6

Problem: Requested field: Percent Effect. Item: `CCNC(=O)Nc1ccc2c(ccn2CC(=O)N(CC)CC)c1`
Solution: 30.4

Problem: For `O=C(N[C@@H]1CN(Cc2ccsc2)[C@@H]2CCCO[C@@H]21)C1CC1` , what is its reported Percent Effect?
Solution: -18.9

Problem: Given the compound CCC1CN(C(=O)c2ccc(Cl)cc2O)CCN1C(C)C (stereo unspecified) , what is its reported Percent Effect?
Solution: 5.13
